test system: SNB-75 CNS; assay: NCI-60 one-dose screen, 48 h (100 = growth as untreated, 0 = no growth, -100 = all killed); settings: 10 µM
Compounds without any hit were thinned out: in the full panel of roughly 83,000, 20% have a hit.

compound	units	growth
Cc1nc2c(ccc3ccccc32)s1	%	108
O=C(O)c1cccc([N+](=O)[O-])c1O	%	96.1
CC(=O)c1ccc2c(ccc3ccccc32)c1	%	105
COc1ccc(OC)c(/C=C2\CCc3ccccc3C2=O)c1	%	17.4
Cc1cc(Cc2cc(C)c(N)cc2N)c(N)cc1N	%	91.4
Clc1ccc(-c2n[nH]c3c2Cc2ccccc2-3)cc1Cl	%	84.9
c1c(-c2cc(C3CC3)[nH]n2)n[nH]c1C1CC1	%	112
COc1cc(C(=O)N/N=C/c2cccc([N+](=O)[O-])c2)cc(OC)c1OC	%	29.5
O=C1C=CC2=C3c4cc(O)c(O)cc4CC3(O)COC2=C1O (configuration not stated)	%	88
CC1NC(=O)NC1CCCCCC(=O)O (configuration not stated)	%	94
O=[N+]([O-])c1ccc(S(=O)(=O)NN=C2CCCCC2)cc1	%	87.8
O=C1NC(=O)C2C(=O)NC(=O)C1C21CCc2ccccc21 (configuration not stated)	%	124

###

System: SK-MEL-5 melanoma
Test: NCI-60 one-dose screen, 48 h (100 = growth as untreated, 0 = no growth, -100 = all killed)
Details: 10 µM
Description: Growth inhibition of the SK-MEL-5 human tumor cell line is measured as a screen for anti-cancer activity. Cells are grown in 96 well plates and exposed to the test compound for 48 hours. Compounds are tested at a single concentration, which is 10^-5 M for most compounds. The reported endpoint is percent growth (GI% or GIPRCNT), where numbers from 0 - 100% represent growth inhibition, and numbers from -100% - 0 represent cell death. For example, a value of 40 represents 60% growth inhibition. […]
This is part of a sample that, as a whole, favours compounds with a hit. Of some 83,000 tested, about 20% had one in any assay.

compound	system-under-test	growth (%)
c1csc(-c2cc(-c3cc(-c4cccs4)[nH]n3)n[nH]2)c1	SK-MEL-5 melanoma	99.2
O=C(CCl)N1CCN(C/C=C/c2ccccc2)CC1	SK-MEL-5 melanoma	86.6
O=[N+]([O-])c1ccc(-c2ncc(-c3ccc(Br)cc3)o2)cc1	SK-MEL-5 melanoma	89.4
O=[N+]([O-])c1ccc(N=Nc2ccc(O)c3ccccc23)cc1	SK-MEL-5 melanoma	28.7
C#Cc1cccc(NC(=O)c2ccc(Cl)cc2Cl)c1	SK-MEL-5 melanoma	91.1
CC1(O)OC(COc2ccc(Cl)cc2)COC1O (configuration not stated)	SK-MEL-5 melanoma	101
C#CC(C)(O)c1ccc(Cl)cc1 (configuration not stated)	SK-MEL-5 melanoma	101
CC1(O)CCCCC1O (configuration not stated)	SK-MEL-5 melanoma	107
O=C(Nc1cccc(NC(=O)Nc2cc(C(F)(F)F)ccc2Cl)c1)Nc1cc(C(F)(F)F)ccc1Cl	SK-MEL-5 melanoma	29.4
C/C(O)=C(\C=N\C(N)=S)C(=O)Nc1ccccc1	SK-MEL-5 melanoma	97.6
CCCCCCCCCCC(C)Br (configuration not stated)	SK-MEL-5 melanoma	102
N#CCCN(CCCN1CCOCC1)CN1C(=O)c2ccccc2C1=O	SK-MEL-5 melanoma	96.8
